Documented pEC50 across a set of compounds
target: α-7 nicotinic ACh receptor ion channel expressed in mammalian HEK 293 cells (Rattus norvegicus, UniProt Q05941); assay: Ca2+-sensitive, fluorescence-based FLIPR assay for α-7 nicotinic acetylcholine receptor channel function (agonist activity); type: cell-based; set-up: expressed in transfected cells; conditions: agonist potency class, Ca2+ flux, HEK-293 cells, Fluo-4; read-out: FLIPR α7 activity rating (EC50)
Sequence (Q05941 23-502): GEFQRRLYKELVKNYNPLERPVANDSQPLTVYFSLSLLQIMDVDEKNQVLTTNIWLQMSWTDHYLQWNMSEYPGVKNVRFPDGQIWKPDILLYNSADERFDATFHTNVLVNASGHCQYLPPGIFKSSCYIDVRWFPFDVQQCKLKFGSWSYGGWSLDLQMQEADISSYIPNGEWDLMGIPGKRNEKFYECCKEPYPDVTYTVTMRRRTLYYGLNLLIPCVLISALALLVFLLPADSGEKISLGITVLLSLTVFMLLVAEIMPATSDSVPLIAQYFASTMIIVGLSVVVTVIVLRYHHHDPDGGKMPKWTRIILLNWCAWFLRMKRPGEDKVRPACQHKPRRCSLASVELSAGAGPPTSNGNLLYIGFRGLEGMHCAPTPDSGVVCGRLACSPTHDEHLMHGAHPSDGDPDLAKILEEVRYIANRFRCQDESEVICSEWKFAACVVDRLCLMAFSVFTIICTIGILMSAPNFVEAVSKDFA
pEC50: −log10 of the molar value.
readoutName: pEC50

1) Cc1ccc2nc(NC3=NC[C@@]4(C[N@@]5CC[C@@H]4C5)O3)oc2c1 [Example 29]: > 7.00
2) COc1ccc2nc(NC3=NC[C@@]4(C[N@@]5CC[C@@H]4C5)O3)sc2c1 (relative stereo) [Example 2]: 4.00 to 6.00
3) Cc1cccc(-c2cnc(NC3=NC[C@@]4(C[N@@]5CC[C@@H]4C5)O3)nc2)c1 (relative stereo) [Example 9]: 4.00 to 6.00
4) COc1ccc2nc(NC3=NC[C@@]4(C[N@]5CC[C@H]4C5)O3)sc2c1 (relative stereo) [Example 1]: 4.00 to 6.00
5) Clc1ccc2oc(NC3=NC[C@@]4(C[N@@]5CC[C@@H]4C5)O3)nc2c1 [Example 25]: > 7.00
6) c1ccc2nc(NC3=NC[C@@]4(C[N@@]5CC[C@@H]4C5)O3)nnc2c1 [Example 24]: > 7.00
7) COc1c(NC2=NC[C@@]3(C[N@@]4CC[C@@H]3C4)O2)ncnc1N1CCCC1 [Example 23]: > 7.00

---

Documented EC50 across a set of compounds
Molecular target: α-7 nicotinic ACh receptor ion channel expressed in mammalian HEK 293 cells (Rattus norvegicus, UniProt Q05941)
Assay: Ca2+-sensitive, fluorescence-based FLIPR assay for α-7 nicotinic acetylcholine receptor channel function (agonist activity)
Type: cell-based
Design: expressed in transfected cells
Details: FLIPR α7 activity rating (EC50, nM), agonist potency class, Ca2+ flux, HEK-293 cells, Fluo-4
Experimental: I) α7 Nicotinic Acetycholine Receptor Binding. Membranes were prepared for binding using HEK293 cells stably expressing the rat α7 nicotinic acetycholine receptor (rat α7 nAChR). […] II) A Ca^2+-Sensitive, Fluorescence-Based Assay α-7 for Nicotinic Acetylcholine Receptor Channel Function In Mammalian Cells (“FLIPR”). Summary: Lead compounds are evaluated for agonist activity at α-7, α3β4, α4αβ2, and α1β1δ1ε sub-types of nicotinic ACh receptor ion channels expressed in mammalian HEK 293 cells. […]
readoutName: EC50

1. c1cc(-c2cc(NC3=NC[C@@]4(C[N@@]5CC[C@@H]4C5)O3)ncn2)ccn1: < 100 nM
2. c1nc(NC2=NC[C@@]3(C[N@@]4CC[C@@H]3C4)O2)c2sccc2n1: 100 to 1000 nM
3. COc1cc(NC2=NC[C@@]3(C[N@@]4CC[C@@H]3C4)O2)ncn1: 100 to 1000 nM
4. c1ccc2cc(NC3=NCC4(CN5CCC4C5)O3)ncc2c1 (single isomer, unassigned) [Example 7b]: < 100 nM

---

target: α-7 nicotinic ACh receptor ion channel expressed in mammalian HEK 293 cells (Rattus norvegicus); assay: Ca2+-sensitive, fluorescence-based FLIPR assay for α-7 nicotinic acetylcholine receptor channel function (agonist activity); format: cell-based; set-up: expressed in transfected cells; settings: FLIPR α7-HI (EC50, nM), agonist potency, Ca2+ flux, HEK-293 cells, Fluo-4
Documented EC50 across a set of compounds
readoutName: EC50

1) c1cnc2sc(NC3=NCC4(CN5CCC4C5)O3)nc2c1 (single isomer, unassigned) [Example 8a]: 121 nM
2) c1ccc2cc(NC3=NC[C@@]4(C[N@]5CC[C@H]4C5)O3)ncc2c1 (relative stereo): 33 nM
3) c1cnc2sc(NC3=NCC4(CN5CCC4C5)O3)nc2c1 (single isomer, unassigned) [Example 17b]: 35 nM
4) Clc1ccc2nc(NC3=NC[C@@]4(C[N@@]5CC[C@@H]4C5)O3)sc2n1 (relative stereo): 91 nM
5) Clc1cn(-c2cc(NC3=NC[C@@]4(C[N@@]5CC[C@@H]4C5)O3)ncn2)cn1: 129 nM
6) Cc1csc2c(NC3=NC[C@@]4(C[N@@]5CC[C@@H]4C5)O3)ncnc12: 222 nM
7) c1cn(-c2cc(NC3=NC[C@@]4(C[N@@]5CC[C@@H]4C5)O3)ncn2)cn1: 45 nM
8) Clc1cnc(NC2=NC[C@@]3(C[N@@]4CC[C@@H]3C4)O2)c(Cl)c1 (relative stereo): 155 nM
9) COc1ccc2nc(NC3=NC[C@@]4(C[N@@]5CC[C@@H]4C5)O3)sc2n1 (relative stereo): 311 nM
10) c1cncc(-c2cc(NC3=NC[C@@]4(C[N@@]5CC[C@@H]4C5)O3)ncn2)c1: 34 nM

---

target: α-7 nicotinic ACh receptor ion channel expressed in mammalian HEK 293 cells (Rattus norvegicus, UniProt Q05941); assay: Ca2+-sensitive, fluorescence-based FLIPR assay for α-7 nicotinic acetylcholine receptor channel function (agonist activity); type: cell-based; set-up: expressed in transfected cells; conditions: FLIPR α7 activity rating (EC50, nM), agonist potency class, Ca2+ flux, HEK-293 cells, Fluo-4
readoutName: EC50

1) c1ccc(-c2ccnc(NC3=NC[C@@]4(C[N@@]5CC[C@@H]4C5)O3)n2)cc1: < 100 nM
2) Clc1cnc(NC2=NC[C@@]3(C[N@@]4CC[C@@H]3C4)O2)cn1: 100 to 1000 nM
3) Clc1cn(-c2cc(NC3=NC[C@@]4(C[N@@]5CC[C@@H]4C5)O3)ncn2)cn1: 100 to 1000 nM
4) Clc1cnc(NC2=NC[C@@]3(C[N@@]4CC[C@@H]3C4)O2)c(Cl)c1 (relative stereo): 100 to 1000 nM

---

molecular target: α-7 nicotinic ACh receptor ion channel expressed in mammalian HEK 293 cells (Rattus norvegicus, UniProt Q05941); test: Ca2+-sensitive, fluorescence-based FLIPR assay for α-7 nicotinic acetylcholine receptor channel function (agonist activity); format: cell-based; design: expressed in transfected cells; details: FLIPR α7 activity rating (EC50, nM), agonist potency class, Ca2+ flux, HEK-293 cells, Fluo-4
readoutName: EC50

1) c1ccc2cc(NC3=NCC4(CN5CCC4C5)O3)ncc2c1 (single isomer, unassigned) [Example 16a]: 1000 to 100000 nM
2) c1ccc2cc(NC3=NC[C@@]4(C[N@@]5CC[C@@H]4C5)O3)ncc2c1 (relative stereo): < 100 nM
3) c1cnc2sc(NC3=NC[C@@]4(C[N@@]5CC[C@@H]4C5)O3)nc2c1 (relative stereo): 100 to 1000 nM
4) c1cncc(-c2cc(NC3=NC[C@@]4(C[N@@]5CC[C@@H]4C5)O3)ncn2)c1: < 100 nM
5) c1ccc2cc(NC3=NC[C@@]4(C[N@]5CC[C@H]4C5)O3)ncc2c1 (relative stereo): < 100 nM
6) Cc1cn(-c2cc(NC3=NC[C@@]4(C[N@@]5CC[C@@H]4C5)O3)ncn2)cn1: 100 to 1000 nM
7) c1nc(NC2=NC[C@@]3(C[N@@]4CC[C@@H]3C4)O2)cc(-n2cncn2)n1: < 100 nM
8) COc1ccc(NC2=NC[C@@]3(C[N@@]4CC[C@@H]3C4)O2)nc1 (relative stereo): 100 to 1000 nM
9) c1ccc2cc(NC3=NCC4(CN5CCC4C5)O3)ncc2c1 (single isomer, unassigned) [Example 16b]: < 100 nM
10) c1cn(-c2cc(NC3=NC[C@@]4(C[N@@]5CC[C@@H]4C5)O3)ncn2)cn1: < 100 nM
11) c1cnc2sc(NC3=NCC4(CN5CCC4C5)O3)nc2c1 (single isomer, unassigned) [Example 17a]: 1000 to 100000 nM
12) Fc1ccc2nc(NC3=NC[C@@]4(C[N@@]5CC[C@@H]4C5)O3)sc2n1 (relative stereo): 100 to 1000 nM
13) COc1ccc2nc(NC3=NC[C@@]4(C[N@@]5CC[C@@H]4C5)O3)sc2n1 (relative stereo): 1000 to 100000 nM
14) c1cnc2sc(NC3=NCC4(CN5CCC4C5)O3)nc2c1 (single isomer, unassigned) [Example 8a]: 100 to 1000 nM
15) Cc1csc2c(NC3=NC[C@@]4(C[N@@]5CC[C@@H]4C5)O3)ncnc12: 100 to 1000 nM
16) Clc1ccc2nc(NC3=NC[C@@]4(C[N@@]5CC[C@@H]4C5)O3)sc2n1 (relative stereo): 100 to 1000 nM

---

target: α-7 nicotinic ACh receptor ion channel expressed in mammalian HEK 293 cells (Rattus norvegicus); assay: Ca2+-sensitive, fluorescence-based FLIPR assay for α-7 nicotinic acetylcholine receptor channel function (agonist activity); type: cell-based
Sequence (Q05941 23-502 limits assumed): as the sequence (Q05941 23-502) above
readoutName: EC50

1) c1ccc2sc(NC3=NC[C@@]4(CN5CC[C@@H]4C5)O3)nc2c1: < 100 nM

---

target: α-7 nicotinic ACh receptor ion channel expressed in mammalian HEK 293 cells (Rattus norvegicus); experiment: Ca2+-sensitive, fluorescence-based FLIPR assay for α-7 nicotinic acetylcholine receptor channel function (agonist activity); type: cell-based; parameters: expressed in transfected cells; conditions: agonist potency, Ca2+ flux, HEK-293 cells, Fluo-4; read-out: FLIPR α7-HI (EC50)
pEC50: −log10 of the molar value.
readoutName: pEC50

1. COc1ccc2nc(NC3=NC[C@@]4(C[N@]5CC[C@H]4C5)O3)sc2c1 (relative stereo) [Example 1]: 6.39
2. Cc1cccc(-c2cnc(NC3=NC[C@@]4(C[N@@]5CC[C@@H]4C5)O3)nc2)c1 (relative stereo) [Example 9]: 6.31
